Target: SCD1 (Homo sapiens)
Construct: host or cells: S. cerevisiae ole1Δ strain (W303 pdr1Δ pdr3Δ background), plasmid pRS316 with TDH3 promoter and CYC1 terminator
Sequence (O00767 whole entry): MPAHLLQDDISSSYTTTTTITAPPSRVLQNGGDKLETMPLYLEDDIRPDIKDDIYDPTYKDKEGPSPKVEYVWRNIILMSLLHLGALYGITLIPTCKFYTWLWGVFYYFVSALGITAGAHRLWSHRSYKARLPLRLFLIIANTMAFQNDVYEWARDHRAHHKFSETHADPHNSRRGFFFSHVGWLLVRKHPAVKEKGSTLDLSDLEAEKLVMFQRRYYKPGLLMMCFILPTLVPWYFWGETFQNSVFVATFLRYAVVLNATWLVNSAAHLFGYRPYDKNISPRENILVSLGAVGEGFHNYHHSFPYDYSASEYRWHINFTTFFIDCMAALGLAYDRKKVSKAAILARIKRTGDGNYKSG
Assay: Growth inhibition of humanized yeast strain expressing SCD1 as sole desaturase
Assay type: cell-based
Details: humanized yeast strain expressing SCD1
Protocol: Strain oleΔ (yeast ole1 deletion mutant) was constructed by deleting OLE1 with NAT-MX6 in BY4741, amplifying the deletion cassette from the genomic DNA of the resulting strain with primers flanking the ORF by 1000 bp upstream and downstream, transforming the resulting deletion cassette into W303 pdr1Δ pdr3Δ, and plating transformants on YPD media containing G418 (200 μg/mL) and nourseothricin ([…]) with 0.01% TWEEN®-20 and 0.5 mM oleic and palmitoleic acids. […]
Think of 60% as a floor: if SCD1 % Max Inhibition stands on it or above, it is MET; beneath it, NOT MET.

Molecule: O=C(C1CC(=O)N(c2ccccc2)C1)N1CCC(c2nc(N3CC4(COC4)C3)no2)CC1 (stereo not shown) [Compound 231]
Target: SCD1 (Homo sapiens)
Assigned Category: MET
--
Molecule: CC(C)n1ncc2ccc(-c3noc(C4CCN(C(=O)C5CC(=O)N(c6ccccc6)C5)CC4)n3)cc21 (stereo not shown) [Compound 174]
Target: SCD1 (Homo sapiens)
Assigned Category: MET
--
Molecule: CCN1C(=O)CN(C)c2cc(-c3noc(C4CCN(C(=O)CNC(=O)c5ccccc5)CC4)n3)ccc21 [Compound 310]
Target: SCD1 (Homo sapiens)
Assigned Category: MET
--
Molecule: Cc1nn(C)c2cc(-c3noc(C4CCN(C(=O)NC(C)(C)C)CC4)n3)ccc12 [Compound 282]
Target: SCD1 (Homo sapiens)
Assigned Category: MET
--
Molecule: Cc1nn(C)c2cc(-c3noc(N4CCN(C(=O)c5cc(-c6ccccc6)no5)CC4)n3)ccc12 [Compound 103]
Target: SCD1 (Homo sapiens)
Assigned Category: MET
--
Molecule: COc1ccc(-c2noc(C3CCN(C(=O)CNC(c4ccccc4)C(F)(F)F)CC3)n2)cc1OC (stereo not shown) [Compound 34]
Target: SCD1 (Homo sapiens)
Assigned Category: NOT MET
--
Molecule: CC(C)c1ccc(C(=O)N2CCC(c3nc(C(=O)Nc4ccnn4C)no3)CC2)cc1 [Compound 287]
Target: SCD1 (Homo sapiens)
Assigned Category: MET
--
Molecule: Cc1nn(C)c2cc(-c3noc(C4CCN(C(=O)CNC(=O)c5ccccc5C(F)(F)F)CC4)n3)ccc12 [Compound 271]
Target: SCD1 (Homo sapiens)
Assigned Category: MET
--
Molecule: CC(C)(CO)n1ncc2ccc(-c3noc(C4CCN(C(=O)C5CC(=O)N(c6ccccc6)C5)CC4)n3)cc21 (stereo not shown) [Compound 203]
Target: SCD1 (Homo sapiens)
Assigned Category: MET
--
Molecule: CCN1C(=O)COc2ccc(-c3nc(C4(c5ccccc5)CC4)no3)cc21 [Compound 159]
Target: SCD1 (Homo sapiens)
Assigned Category: MET
--
Molecule: O=C(NCC(=O)N1CCC(c2nc(-c3ccc(F)cc3)no2)CC1)c1ccccc1 [Compound 41]
Target: SCD1 (Homo sapiens)
Assigned Category: NOT MET
--
Molecule: CCOc1ccc(-c2noc(N3CCC(C(=O)N4CCO[C@H](c5ccccc5)C4)CC3)n2)cc1OC [Compound 218]
Target: SCD1 (Homo sapiens)
Assigned Category: NOT MET
--
Molecule: COc1ccc(-c2noc(C3CCN(C(=O)C4CC(=O)N(C5CCCCC5)C4)CC3)n2)cc1OC (stereo not shown) [Compound 125]
Target: SCD1 (Homo sapiens)
Assigned Category: MET
--
Molecule: Cc1nn(C)c2cc(-c3noc(C4CCN(C(=O)c5ccccc5Cl)CC4)n3)ccc12 [Compound 288]
Target: SCD1 (Homo sapiens)
Assigned Category: NOT MET
--
Molecule: O=C(C1CC(=O)N(c2ccccc2)C1)N1CCC(c2nc(-c3ccc4nonc4c3)no2)CC1 (stereo not shown) [Compound 164]
Target: SCD1 (Homo sapiens)
Assigned Category: MET
--
Molecule: Cc1nn(C)c2cc(-c3noc(N4CCN(C(=O)c5cc(F)ccc5Cl)CC4)n3)ccc12 [Compound 278]
Target: SCD1 (Homo sapiens)
Assigned Category: NOT MET
--
Molecule: Cc1nn(C)c2cc(-c3noc(C4CCN(Cc5ccccc5)C(=O)C4)n3)ccc12 (stereo not shown) [Compound 354]
Target: SCD1 (Homo sapiens)
Assigned Category: NOT MET
--
Molecule: CC(C)n1cc2ccc(-c3noc(C4CCN(C(=O)CNC(=O)c5ccccc5)CC4)n3)cc2n1 [Compound 181]
Target: SCD1 (Homo sapiens)
Assigned Category: MET
--
Molecule: Cc1ccc(-c2noc(C3CCN(C(=O)[C@@H]4CC(=O)N(c5ccc(C)c(C)c5)C4)CC3)n2)cc1 [Compound 62]
Target: SCD1 (Homo sapiens)
Assigned Category: NOT MET
--
Molecule: Cc1nn(C)c2cc(-c3noc(C4CCN(C(=O)c5ccc(C(C)C)cc5)CC4)n3)ccc12 [Compound 290]
Target: SCD1 (Homo sapiens)
Assigned Category: NOT MET
--
Molecule: COc1ccc(C(=O)NCC(=O)N2CCC(c3nc(-c4ccc5c(C)nn(C)c5c4)no3)CC2)nc1 [Compound 151]
Target: SCD1 (Homo sapiens)
Assigned Category: MET
--
Molecule: COc1ccc(-c2noc(C3CCN(C(=O)CNC(=O)c4ccccc4OC)CC3)n2)cc1OC [Compound 144]
Target: SCD1 (Homo sapiens)
Assigned Category: MET
--
Molecule: Cc1nn(C)c2cc(-c3noc(C4CCN(C(=O)CNC(=O)c5ccsn5)CC4)n3)ccc12 [Compound 226]
Target: SCD1 (Homo sapiens)
Assigned Category: NOT MET
--
Molecule: Cc1nn(C)c2cc(-c3noc(C4CCN(C(=O)c5ccccc5)CC4)n3)ccc12 [Compound 280]
Target: SCD1 (Homo sapiens)
Assigned Category: NOT MET
--
Molecule: Cc1nn(C)c2nc(-c3noc(C4CCN(C(=O)C5CC(=O)N(c6ccccc6)C5)CC4)n3)ccc12 (stereo not shown) [Compound 116]
Target: SCD1 (Homo sapiens)
Assigned Category: MET
--
Molecule: Cc1nn(C)c2cc(-c3noc(N4CCN(C(=O)N5CCCCC5)CC4)n3)ccc12 [Compound 327]
Target: SCD1 (Homo sapiens)
Assigned Category: MET
--
Molecule: Cc1ccc(N2CC(C(=O)N3CCC(c4nc(N5CC6(COC6)C5)no4)CC3)CC2=O)nc1 (stereo not shown) [Compound 333]
Target: SCD1 (Homo sapiens)
Assigned Category: NOT MET
--
Molecule: N#CCC1CN(c2noc(C3CCN(C(=O)C4CC(=O)N(c5ccccc5)C4)CC3)n2)C1 (stereo not shown) [Compound 242]
Target: SCD1 (Homo sapiens)
Assigned Category: MET
--
Molecule: Cc1nn(C)c2cc(-c3noc(C4CCN(C(=O)C5CC(=O)N(c6ccccc6)C5)CC4)n3)ncc12 (stereo not shown) [Compound 120]
Target: SCD1 (Homo sapiens)
Assigned Category: MET
--
Molecule: Cc1nn(C)c2cc(-c3noc(C4CCN(C(=O)CC(C)(C)C)CC4)n3)ccc12 [Compound 263]
Target: SCD1 (Homo sapiens)
Assigned Category: NOT MET
--
Molecule: COc1ccc(-c2coc(C3CCN(C(=O)CNC(=O)c4ccccc4)CC3)n2)cc1OC [Compound 37]
Target: SCD1 (Homo sapiens)
Assigned Category: MET
